# credit: ChEMBL document CHEMBL1146503

- targetUnderTest: Cyclin-dependent kinase 5 (Rattus norvegicus)
- Sequence (Q03114 whole entry): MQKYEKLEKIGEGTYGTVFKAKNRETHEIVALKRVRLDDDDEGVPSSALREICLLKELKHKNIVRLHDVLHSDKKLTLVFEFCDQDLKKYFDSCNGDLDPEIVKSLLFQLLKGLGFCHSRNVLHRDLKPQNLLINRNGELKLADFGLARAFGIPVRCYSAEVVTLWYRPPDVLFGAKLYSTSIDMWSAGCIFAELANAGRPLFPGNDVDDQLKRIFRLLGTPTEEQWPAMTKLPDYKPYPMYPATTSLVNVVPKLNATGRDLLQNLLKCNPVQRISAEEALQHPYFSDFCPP
- assayNotes: Inhibition of rat fetal brain CDK5 assessed as phosphorylated histone H1 levels by immuno-precipitation
pEC50: −log10 of the molar value.
Give measured pEC50 for each item. Keep answers brief.

Q: Could you tell me which pEC50 is on file for COc1cc2oc(-c3ccccc3)cc(=O)c2c(OC)c1O ?
Ans: < 3.60

Q: Next entry: COc1cc(-c2oc3c(OC)c(OC)c(OC)c(O)c3c(=O)c2OC)ccc1O
Ans: < 4.60

Q: Proceed to COc1c(O)cc2oc(-c3ccc(O)cc3)cc(=O)c2c1O
Ans: 4.72

Q: Another: O=c1cc(-c2ccc(O)cc2)oc2cc(O)cc(O)c12
Ans: < 3.60

Q: Moving on to the next compound: O=c1cc(-c2ccc(O)c(O)c2)oc2cc(O)cc(O)c12
Ans: < 3.60
